Recorded pIC50 for the following compounds
# assayed-system: wildtype Kras / hSOS1 (Homo sapiens)
# Construct: made in house; host or cells: E. coli BL21 (DE3)
# Sequence (P01116 1-188 isoform P01116-2): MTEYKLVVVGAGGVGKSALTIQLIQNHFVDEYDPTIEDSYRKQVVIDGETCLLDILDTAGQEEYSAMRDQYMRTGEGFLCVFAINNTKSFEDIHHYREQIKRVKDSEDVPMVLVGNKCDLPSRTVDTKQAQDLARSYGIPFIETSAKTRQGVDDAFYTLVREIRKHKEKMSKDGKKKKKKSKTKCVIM
# assay-procedure: HTRF assay, wildtype Kras / SOS1 interaction
# Format: binding
# test-conditions: compound nos. 102-196, general methodology of example 5; read-out: IC50 against wildtype Kras
pIC50: −log10 of the molar value.

Some entries whose results are on file:
Nc1nc2c(-c3c(Cl)cc4c(N5CCCCC(F)(F)C5)nc(OC[C@@]56CCCN5C[C@H](F)C6)nc4c3F)ccc(F)c2s1 : > 6.30
Nc1nc2c(-c3c(Cl)cc4c(N5CCNCC(F)(F)C5)nc(OCC56CCCN5CCC6)nc4c3F)ccc(F)c2s1 : > 6.30
Nc1nc2c(-c3c(Cl)cc4c(N5CCNCC(F)(F)C5)nc(OC[C@@]56CCCN5C[C@H](F)C6)nc4c3F)cccc2o1 : > 6.30

pIC50 for CN1CCC[C@H]1COc1nc(N2CCNCC(F)(F)C2)c2cc(Cl)c(-c3cccc4cccc(Cl)c34)c(F)c2n1 is < 6.30

pIC50 for Nc1nc2c(-c3c(Cl)cc4c(N5CCOCC(O)C5)nc(OCC56CCCN5CCC6)nc4c3F)ccc(F)c2s1 (stereo not shown) is > 6.30

pIC50 for CN1CCC[C@H]1COc1nc(N2CC3CNC(C3)C2)c2cc(Cl)c(-c3cccc4sc(N)nc34)c(F)c2n1 (stereo partly shown) is < 6.30

pIC50 for CN1CCC[C@H]1COc1nc(N2CCNCC(F)(F)C2)c2cc(Cl)c(-c3cccc4sc(N)nc34)c(OCc3ccccn3)c2n1 is < 6.30

Reference for the values: patent US20240254129A1
